For each of the molecules below, state its IC50.
test system: Ba/F3-N676D/ITD; assay: MTT proliferation assay, Ba/F3-N676D/ITD; type: cell-based; conditions: 48 h, read-out: Proliferation IC50
One number for each entry, in nM.

• C[C@]12O[C@H](C[C@]1(O)CO)n1c3ccccc3c3c4c(c5c6ccccc6n2c5c31)CNC4=O [CEP-701, lestaurtinib] = 6

For the next question, use this molecule.
Form field IC50, entry CNC(=O)c1cc(Oc2ccc(NC(=O)Nc3ccc(Cl)c(C(F)(F)F)c3)cc2)ccn1 [sorafenib] : 48

###

tested on: Ba/F3-ITD; test: cells; conditions: 48 h, read-out: Proliferation IC50
propertyLabel: IC50 (nM)
Answers are plain numbers, in nM.

Form field IC50, entry "C[C@]12O[C@H](C[C@]1(O)CO)n1c3ccccc3c3c4c(c5c6ccccc6n2c5c31)CNC4=O" : 10

###

system: Ba/F3-Y842C/ITD; experiment: MTT proliferation assay, Ba/F3-Y842C/ITD; assay type: cell-based; conditions: 48 h, read-out: Proliferation IC50
pIC50: −log10 of the molar value.
propertyLabel: pIC50

Form field pIC50, entry "CNC(=O)c1cc(Oc2ccc(NC(=O)Nc3ccc(Cl)c(C(F)(F)F)c3)cc2)ccn1" : < 7.00
